- Tested System: Ret wt (Homo sapiens (Human))
- Method Notes: HTRF kinase inhibition assay, Ret wt
- Format: biochemical
- Condition Parameters: HTRF method
Readout Type: IC50 (nM)

Use the examples below as a reference point.
{"columns": ["Compound String", "Reported Measurement"],
 "data": [
  ["C#Cc1ccc(C(=O)NC2(C)CCN(c3ccc(-c4cc(-c5cnn(C)c5)cn5ncc(C#N)c45)cn3)CC2)cc1", 0.35],
  ["Cn1cc(-c2cc(-c3ccc(N4CC5(CCN(C(=O)C#Cc6ccccc6)CC5)C4)nc3)c3c(C#N)cnn3c2)cn1", 27],
  ["C#CCNC1(C)CCN(c2ccc(-c3cc(-c4cnn(C)c4)cn4ncc(C#N)c34)cn2)CC1", 1.38]
]}

I. Cn1cc(-c2cc(-c3ccc(N4CCN(CC#Cc5ccncc5)CC4)nc3)c3c(C#N)cnn3c2)cn1
II. COc1cncc(C#CC(=O)N2CCN(c3ccc(-c4cc(-c5cnn(C)c5)cn5ncc(C#N)c45)cn3)CC2)c1
Q) Smaller IC50 value, I vs II ? // caller expects the label of the chosen entry
A) II

====

- Tested System: Ret wt (Homo sapiens (Human))
- Method Notes: HTRF kinase inhibition assay, Ret wt
- Type: biochemical
- Condition Parameters: HTRF method
Readout Type: IC50 (nM)

{"columns": ["Compound", "Tested System", "IC50 (nM)"],
 "data": [
  ["Cn1cc(-c2cc(-c3ccc(N4CC5CC(C4)N5CC#Cc4cccnc4)nc3)c3c(C#N)cnn3c2)cn1 [Example 249]", "Ret wt (Homo sapiens (Human))", 0.39],
  ["Cn1cc(-c2cc(-c3ccc(N4CCN(CC#Cc5ccc(F)nc5)CC4)nc3)c3c(C#N)cnn3c2)cn1 [Example 261]", "Ret wt (Homo sapiens (Human))", 3.1],
  ["C#Cc1cccc(CN2C3CC2CN(c2ccc(-c4cc(-c5cnn(C)c5)cn5ncc(C#N)c45)cn2)C3)c1F [Example 218]", "Ret wt (Homo sapiens (Human))", 0.52]
]}

A. Cn1cc(-c2cc(-c3ccc(N4CCN(C(=O)C#Cc5ccccc5)CC4)nc3)c3c(C#N)cnn3c2)cn1 [Example 1]
B. C#Cc1cccc(C(=O)N2CCC3(CCN(c4ccc(-c5cc(-c6cnn(C)c6)cn6ncc(C#N)c56)cn4)CC3)C2)c1 [Example 229]
Q) Of the two listed items, A and B , which carries the larger IC50 figure? Could you answer with the label of the item you picked?
A) B
(B: 25.1 nM, A: 0.61 nM)

====

- Tested System: Ret wt (Homo sapiens (Human), UniProt P07949)
- Sequence (P07949 29-1114): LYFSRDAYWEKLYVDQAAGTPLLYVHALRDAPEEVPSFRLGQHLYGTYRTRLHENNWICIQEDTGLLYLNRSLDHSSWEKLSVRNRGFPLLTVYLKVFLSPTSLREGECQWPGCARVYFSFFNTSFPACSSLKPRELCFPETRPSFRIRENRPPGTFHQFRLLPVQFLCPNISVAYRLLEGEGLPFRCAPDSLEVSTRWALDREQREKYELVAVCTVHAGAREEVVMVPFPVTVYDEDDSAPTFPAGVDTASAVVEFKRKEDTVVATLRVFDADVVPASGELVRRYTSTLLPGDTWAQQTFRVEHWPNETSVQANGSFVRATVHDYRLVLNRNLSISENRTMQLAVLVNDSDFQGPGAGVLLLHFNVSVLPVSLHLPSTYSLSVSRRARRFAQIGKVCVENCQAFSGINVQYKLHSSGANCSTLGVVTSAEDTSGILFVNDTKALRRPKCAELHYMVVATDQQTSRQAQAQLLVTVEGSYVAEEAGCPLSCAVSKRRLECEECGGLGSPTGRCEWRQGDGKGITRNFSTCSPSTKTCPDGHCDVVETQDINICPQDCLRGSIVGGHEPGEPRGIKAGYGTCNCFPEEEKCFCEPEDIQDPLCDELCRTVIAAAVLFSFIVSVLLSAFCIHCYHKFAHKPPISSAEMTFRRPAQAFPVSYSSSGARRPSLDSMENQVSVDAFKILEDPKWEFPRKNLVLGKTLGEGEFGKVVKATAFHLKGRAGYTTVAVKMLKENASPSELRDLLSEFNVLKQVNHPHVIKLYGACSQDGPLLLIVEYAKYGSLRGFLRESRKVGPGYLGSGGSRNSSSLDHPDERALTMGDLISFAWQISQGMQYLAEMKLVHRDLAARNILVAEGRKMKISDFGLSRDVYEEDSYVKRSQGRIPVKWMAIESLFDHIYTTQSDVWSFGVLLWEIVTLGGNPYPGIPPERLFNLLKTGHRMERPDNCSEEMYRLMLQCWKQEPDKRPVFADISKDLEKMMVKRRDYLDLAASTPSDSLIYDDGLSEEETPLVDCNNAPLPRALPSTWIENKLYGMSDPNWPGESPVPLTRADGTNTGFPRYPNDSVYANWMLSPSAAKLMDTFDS
- Method Notes: HTRF kinase inhibition assay, Ret wt
- Assay type: biochemical
- Condition Parameters: HTRF method
Readout Type: IC50 (nM)

{"columns": ["Compound", "Readout Type", "Reported Measurement"],
 "data": [
  ["Cn1cc(-c2cc(-c3ccc(N4CC5CC(C4)N5CC#Cc4ccccn4)nc3)c3c(C#N)cnn3c2)cn1", "IC50", 0.15],
  ["C#Cc1ccc(CN2CCN(c3ccc(-c4cc(-c5cnn(C)c5)cn5ncc(C#N)c45)cn3)CC2)nc1", "IC50", 0.39],
  ["C#CC(=O)N1CCN(c2ccc(-c3cc(-c4cnn(C)c4)cn4ncc(C#N)c34)cn2)CC1", "IC50", 0.39]
]}

a. C#Cc1cccc(C(=O)NC2(C)CCN(c3ccc(-c4cc(-c5cnn(C)c5)cn5ncc(C#N)c45)cn3)CC2)c1
b. Cn1cc(-c2cc(-c3ccc(N4CCN(CC#Cc5cccnc5)CC4)nc3)c3c(C#N)cnn3c2)cn1
c. C#Cc1ccc(OC2CN(c3ccc(-c4cc(-c5c(C)noc5C)cn5ncc(C#N)c45)cn3)C2)cn1
d. C#Cc1ccc(OC2CN(c3ccc(-c4cc(-c5cnn(C(F)F)c5)cn5ncc(C#N)c45)cn3)C2)cn1
Q) Order the records so the highest IC50 appears first and the lowest last. Labels, requested order.
A) c, b, d, a

====

- Tested System: Ret V804M (Homo sapiens (Human), UniProt P07949, V804M)
- Sequence (P07949 29-1114 V804M): as the sequence (P07949 29-1114) above, with V776M counted along it
- Method Notes: HTRF kinase inhibition assay, Ret V804M
- Format: biochemical
- Condition Parameters: HTRF method
Readout Type: IC50 (nM)

Worked set:
{"columns": ["Compound String", "Tested System", "Quantity Unit", "IC50"],
 "data": [
  ["Cn1cc(-c2cc(-c3ccc(N4CCN(CC#Cc5cccnc5F)CC4)nc3)c3c(C#N)cnn3c2)cn1", "Ret V804M (Homo sapiens (Human), UniProt P07949, V804M)", "nM", 4.11],
  ["COc1cc(C#CCN2CCN(c3ccc(-c4cc(-c5cnn(C)c5)cn5ncc(C#N)c45)cn3)CC2)ccn1", "Ret V804M (Homo sapiens (Human), UniProt P07949, V804M)", "nM", 37.8]
]}

A. C#CC#CCN1CCN(c2ccc(-c3cc(-c4cnn(C)c4)cn4ncc(C#N)c34)cn2)CC1
B. Cn1cc(-c2cc(-c3ccc(N4CCN(CC#Cc5ncccc5F)CC4)nc3)c3c(C#N)cnn3c2)cn1
C. COc1ccc(C#CCN2CCN(c3ccc(-c4cc(-c5cnn(C)c5)cn5ncc(C#N)c45)cn3)CC2)cc1
Q) Please give the order of these molecules when sorted by IC50, largest value leading. Hello, could you send the labels back in the order asked? Thank you.
A) C, A, B
(C: 27.9 nM, A: 8.22 nM, B: 0.74 nM)

====

- Tested System: Ret wt (Homo sapiens (Human))
- Method Notes: HTRF kinase inhibition assay, Ret wt
- Type: biochemical
- Condition Parameters: HTRF method
Readout Type: IC50 (nM)

{"columns": ["Molecule", "IC50 / nM"],
 "data": [
  ["Cn1cc(-c2cc(-c3ccc(N4CC5CC(C4)N5CC#Cc4ccccc4)nc3)c3c(C#N)cnn3c2)cn1", 0.14],
  ["COc1cncc(C#CCN2CCN(c3ccc(-c4cc(-c5cnn(C)c5)cn5ncc(C#N)c45)cn3)CC2)c1", 3.57],
  ["C#Cc1ccc(C(=O)N2C3CC2CN(c2ccc(-c4cc(-c5cnn(C)c5)cn5ncc(C#N)c45)cn2)C3)cc1", 1.05],
  ["C#Cc1cc(C(=O)N2CCN(c3ccc(-c4cc(-c5cnn(C)c5)cn5ncc(C#N)c45)cn3)CC2)ccc1F", 0.62],
  ["C#CCN1C2CC1CN(c1ccc(-c3cc(-c4cnn(C)c4)cn4ncc(C#N)c34)cn1)C2", 0.29]
]}

P. C#CC#CCN1CCN(c2ccc(-c3cc(-c4cnn(C)c4)cn4ncc(C#N)c34)cn2)CC1
Q. C#Cc1ccc(C(=O)N2CCN(c3ccc(-c4cc(-c5cnn(C)c5)cn5ncc(C#N)c45)cn3)CC2)nc1
Q) Quick check, higher IC50 between P and Q ? Please respond with the label that marks your chosen entry.
A) P

I. Cn1cc(-c2cc(-c3ccc(N4CCN(CC#Cc5cccnc5F)CC4)nc3)c3c(C#N)cnn3c2)cn1
II. Cn1cc(-c2cc(-c3ccc(N4CCN(CC#Cc5ccccc5)CC4)nc3)c3c(C#N)cnn3c2)cn1
III. COc1ccc(C#CCN2CCN(c3ccc(-c4cc(-c5cnn(C)c5)cn5ncc(C#N)c45)cn3)CC2)cc1
Q) List by increasing IC50. Put the labels in the requested order and list them out.
A) I, II, III
(I: 0.57 nM, II: 0.91 nM, III: 2.41 nM)

I. Cn1cc(-c2cc(-c3ccc(N4CCN(CC#Cc5cncc(C(F)(F)F)c5)CC4)nc3)c3c(C#N)cnn3c2)cn1
II. C#Cc1ccc(OC2CN(c3ccc(-c4cc(-c5cnn(C(F)F)c5)cn5ncc(C#N)c45)cn3)C2)cc1
Q) Higher IC50 between I and II ? Record your answer as the label of the chosen record.
A) I
(I: 3.65 nM, II: 0.56 nM)

====

- Tested System: Ret wt (Homo sapiens (Human))
- Method Notes: HTRF kinase inhibition assay, Ret wt
- Type: biochemical
- Condition Parameters: HTRF method
Readout Type: IC50 (nM)
I only need the number, in nM, no unit after it.

{"columns": ["Compound", "Tested System", "Readout Type", "Reported Measurement"],
 "data": [
  ["Cn1cc(-c2cc(-c3ccc(N4CC5CC(C4)N5C(=O)C#Cc4cccnc4)nc3)c3c(C#N)cnn3c2)cn1", "Ret wt (Homo sapiens (Human))", "IC50", 4.28],
  ["Cn1cc(-c2cc(-c3ccc(N4CC5CC(C4)N5CC#Cc4cncc(F)c4)nc3)c3c(C#N)cnn3c2)cn1", "Ret wt (Homo sapiens (Human))", "IC50", 0.16],
  ["C#CC(=O)N1C2CC1CN(c1ccc(-c3cc(-c4cnn(C)c4)cn4ncc(C#N)c34)cn1)C2", "Ret wt (Homo sapiens (Human))", "IC50", 1.95],
  ["C#Cc1cncc(CN2C3CC2CN(c2ccc(-c4cc(-c5cnn(C)c5)cn5ncc(C#N)c45)cn2)C3)c1", "Ret wt (Homo sapiens (Human))", "IC50", 0.28],
  ["COc1cncc(C#CCN2C3CC2CN(c2ccc(-c4cc(-c5cnn(C)c5)cn5ncc(C#N)c45)cn2)C3)c1", "Ret wt (Homo sapiens (Human))", "IC50", 0.16],
  ["Cn1cc(-c2cc(-c3ccc(N4CC5CC(C4)N5CC#Cc4ncccc4F)nc3)c3c(C#N)cnn3c2)cn1", "Ret wt (Homo sapiens (Human))", "IC50", 0.15]
]}

Entry C#Cc1ccc(C(=O)N2C3CC2CN(c2ccc(-c4cc(-c5cnn(C)c5)cn5ncc(C#N)c45)cn2)C3)cc1F — recorded IC50 = 0.37

C#Cc1cc(CN2C3CC2CN(c2ccc(-c4cc(-c5cnn(C)c5)cn5ncc(C#N)c45)cn2)C3)ccn1 yielded IC50 of 0.35

The recorded IC50 for C#Cc1cccc(C(=O)N2C3CC2CN(c2ccc(-c4cc(-c5cnn(C)c5)cn5ncc(C#N)c45)cn2)C3)c1 is 3.75

The recorded IC50 for entry C#Cc1cccc(C(C)N2C3CC2CN(c2ccc(-c4cc(-c5cnn(C)c5)cn5ncc(C#N)c45)cn2)C3)n1 (centres unmarked) equals 2.9

In plain terms, COc1ccc(C#CCN2C3CC2CN(c2ccc(-c4cc(-c5cnn(C)c5)cn5ncc(C#N)c45)cn2)C3)cn1 has a documented IC50 of 0.68

Data provenance: patent US12209085B2
